Target System: hα2C receptor (Homo sapiens)
Construct: expressed in transfected cells; host or cells: CHO cells, stably transfected; membrane preparation
Sequence (P18825 1-462): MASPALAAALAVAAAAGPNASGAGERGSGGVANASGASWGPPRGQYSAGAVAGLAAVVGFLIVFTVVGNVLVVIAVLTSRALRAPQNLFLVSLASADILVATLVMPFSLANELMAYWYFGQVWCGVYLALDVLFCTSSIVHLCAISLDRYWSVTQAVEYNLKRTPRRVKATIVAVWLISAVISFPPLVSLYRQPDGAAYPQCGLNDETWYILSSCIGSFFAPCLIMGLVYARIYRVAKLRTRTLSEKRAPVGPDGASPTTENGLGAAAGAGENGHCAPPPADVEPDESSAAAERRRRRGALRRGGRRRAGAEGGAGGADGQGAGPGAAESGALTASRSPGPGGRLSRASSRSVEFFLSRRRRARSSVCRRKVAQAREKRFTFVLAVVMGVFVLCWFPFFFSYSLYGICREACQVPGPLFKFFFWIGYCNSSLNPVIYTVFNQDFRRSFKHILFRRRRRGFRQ
Test Method Notes: Radioligand binding experiment for α2C-adrenoceptor ([3H]raulwolscine, CHO cell membranes)
Reported Conditions: [3H]raulwolscine binding, read-out: h-α2C pIC50 (converted)
IC50 strictly less than 0.01 µM = 1. Otherwise -1.

CSCCn1ccnc(NC2CCN(C/C(C)=C/c3ccccc3)CC2)c1=O [4-1] : -1
COC(=O)C1CCN(C(=O)Cn2ccnc(NC3CCN(C/C(C)=C/c4ccccc4)CC3)c2=O)CC1 [2-15] : 1
C/C(=C\c1ccccc1)CN1CCC(Nc2nccn(CC(=O)OCc3ccccc3)c2=O)CC1 [3-20] : -1
C/C(=C\c1ccccc1)CN1CCC(Nc2nccn(CCCN(Cc3ccccc3)C(=O)Cc3ccccc3)c2=O)CC1 [1-89] : -1

API: query returns whether the molecule falls strictly under 0.01 µM in IC50. Query: C/C(=C\c1ccccc1)CN1CCN(c2ncc[nH]c2=O)CC1 [14-1]
-1

API: query returns whether the molecule falls strictly under 0.01 µM in IC50. Query: C/C(=C\c1ccccc1)CN1CCC(Nc2nccn(CCN3CCCCC3)c2=O)CC1 [2-4]
1

API: query returns whether the molecule falls strictly under 0.01 µM in IC50. Query: COc1cccc(Cn2ccnc(NC3CCN(C/C(C)=C/c4ccccc4)CC3)c2=O)c1 [3-10]
-1

API: query returns whether the molecule falls strictly under 0.01 µM in IC50. Query: C/C(=C\c1ccccc1)CN1CCC(Nc2nccn(CCCNC(=O)Nc3ccccc3)c2=O)CC1 [1-119]
1

API: query returns whether the molecule falls strictly under 0.01 µM in IC50. Query: CCCn1ccnc(N2CCN(C/C(C)=C/c3ccccc3)CC2)c1=O [14-2]
-1

The reported numbers originate from patent US20090111801A1.
